Measurement target: cyclooxygenase (Oryctolagus cuniculus, UniProt O97554)
Construct: arachidonic acid induced aggregation of washed rabbit platelets; endogenous in cells; host or cells: washed platelets of male New Zealand rabbits
Sequence (O97554 31-606): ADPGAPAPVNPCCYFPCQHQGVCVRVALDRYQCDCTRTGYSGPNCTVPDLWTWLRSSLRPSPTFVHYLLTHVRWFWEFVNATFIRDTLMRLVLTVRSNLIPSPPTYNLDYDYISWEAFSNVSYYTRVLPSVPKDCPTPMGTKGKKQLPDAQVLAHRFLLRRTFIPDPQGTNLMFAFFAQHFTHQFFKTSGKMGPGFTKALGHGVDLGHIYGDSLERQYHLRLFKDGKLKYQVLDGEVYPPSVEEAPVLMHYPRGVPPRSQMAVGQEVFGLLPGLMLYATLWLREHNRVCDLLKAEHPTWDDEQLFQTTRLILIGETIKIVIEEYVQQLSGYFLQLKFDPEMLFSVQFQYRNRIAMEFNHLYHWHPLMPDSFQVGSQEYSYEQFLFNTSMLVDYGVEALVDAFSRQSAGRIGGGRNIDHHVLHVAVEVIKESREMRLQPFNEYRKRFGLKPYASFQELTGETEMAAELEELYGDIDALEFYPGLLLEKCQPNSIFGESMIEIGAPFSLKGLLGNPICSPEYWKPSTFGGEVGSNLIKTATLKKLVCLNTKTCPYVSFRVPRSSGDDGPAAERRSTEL
Assay name: In vitro effect on arachidonic acid induced aggregation of washed rabbit platelets
Type: cell-based
Applied conditions: arachidonic acid 0.5 mM, read-out: IC50 (arachidonic acid induced platelet aggregation)
Measured metric: pIC50
Quick note: pIC50 values are minus log10 of concentrations in mol/L.

# pIC50 (molecule: CC(=O)Oc1ccccc1C(=O)O [aspirin, acetylsalicylic acid, reference compound] ) is 3.70

----------
Measurement target: inducible NO synthase (Rattus norvegicus)
Construct: the compounds were tested on isolated rat aorta from shocked animal
Assay name: In vitro effect on inducible NO synthase in the isolated rat aorta from endotoxin-shocked animal
Applied conditions: aorta from endotoxin-treated rats, endothelium disrupted; PE 1 μM; read-out: Test on inducible NO synthase IC50
Measured metric: pIC50
Keep it numeric: pIC50 is minus log10 of the concentration in mol/L.

For reference, reported pIC50 for COC(=O)[C@H](CCCNC(N)=N[N+](=O)[O-])NC(=O)c1ccccc1OC(C)=O [Example 16] stands at 5.40

----------
Measurement target: constitutive NO synthase (Rattus norvegicus, UniProt Q62600)
Construct: Preparations of isolated rat aorta with endothelium
Sequence (Q62600 2-1202 limits assumed): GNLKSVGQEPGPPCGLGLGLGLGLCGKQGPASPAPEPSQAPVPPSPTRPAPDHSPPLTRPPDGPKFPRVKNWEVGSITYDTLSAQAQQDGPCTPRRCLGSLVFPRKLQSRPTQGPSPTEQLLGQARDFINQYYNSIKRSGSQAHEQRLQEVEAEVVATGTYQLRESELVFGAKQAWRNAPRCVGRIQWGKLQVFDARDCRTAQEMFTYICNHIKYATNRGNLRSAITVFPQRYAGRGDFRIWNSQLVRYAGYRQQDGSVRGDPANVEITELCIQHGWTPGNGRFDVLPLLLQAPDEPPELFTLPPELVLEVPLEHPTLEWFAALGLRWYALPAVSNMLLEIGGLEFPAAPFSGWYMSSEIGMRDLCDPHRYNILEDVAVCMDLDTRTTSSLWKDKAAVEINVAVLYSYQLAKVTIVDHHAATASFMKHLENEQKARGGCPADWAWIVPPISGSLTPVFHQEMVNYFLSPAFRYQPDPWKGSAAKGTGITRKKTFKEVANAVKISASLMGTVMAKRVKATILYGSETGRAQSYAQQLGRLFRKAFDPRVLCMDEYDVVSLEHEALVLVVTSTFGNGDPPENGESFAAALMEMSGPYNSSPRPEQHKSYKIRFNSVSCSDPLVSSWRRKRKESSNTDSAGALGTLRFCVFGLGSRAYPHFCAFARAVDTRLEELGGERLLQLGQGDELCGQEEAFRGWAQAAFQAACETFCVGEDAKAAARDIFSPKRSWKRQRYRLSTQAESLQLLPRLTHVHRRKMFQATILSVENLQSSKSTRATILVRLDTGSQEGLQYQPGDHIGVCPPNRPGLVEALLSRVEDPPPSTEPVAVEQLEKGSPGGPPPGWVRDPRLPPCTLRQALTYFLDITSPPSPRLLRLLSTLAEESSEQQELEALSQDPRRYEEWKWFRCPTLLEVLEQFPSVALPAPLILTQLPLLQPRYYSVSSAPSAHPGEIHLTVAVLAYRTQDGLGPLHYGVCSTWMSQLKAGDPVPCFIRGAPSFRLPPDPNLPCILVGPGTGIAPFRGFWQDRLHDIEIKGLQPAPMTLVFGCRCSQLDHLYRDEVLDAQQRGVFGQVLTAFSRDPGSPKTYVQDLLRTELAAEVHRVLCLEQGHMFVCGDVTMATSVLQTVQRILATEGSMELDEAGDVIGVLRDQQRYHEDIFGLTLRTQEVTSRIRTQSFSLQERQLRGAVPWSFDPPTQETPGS
Assay name: In vitro effect on constitutive NO synthase in the isolated rat aorta
Applied conditions: isolated rat aorta with endothelium; reversal of carbachol relaxation; PE 1 μM; read-out: Test on constitutive NO synthase IC50
Measured metric: pIC50
Here pIC50 is given on a logarithmic scale as minus log10 of the concentration in mol/L.

The value of pIC50 recorded for "COC(=O)[C@H](CCCNC(N)=N[N+](=O)[O-])NC(=O)c1ccccc1OC(C)=O" when tested on constitutive NO synthase (Rattus norvegicus, UniProt Q62600) reads 5.05

The reported constitutive NO synthase (Rattus norvegicus, UniProt Q62600) pIC50 of "CNC(=N)NCCCC(N)C(=O)O.Cc1cccc(Nc2ccccc2C(=O)O)c1C" is 5.00
